- ASSAY_TARGET: Glutathione peroxidase 1 (Homo sapiens) (UniProt P07203)
- Sequence (P07203 whole entry, looked up): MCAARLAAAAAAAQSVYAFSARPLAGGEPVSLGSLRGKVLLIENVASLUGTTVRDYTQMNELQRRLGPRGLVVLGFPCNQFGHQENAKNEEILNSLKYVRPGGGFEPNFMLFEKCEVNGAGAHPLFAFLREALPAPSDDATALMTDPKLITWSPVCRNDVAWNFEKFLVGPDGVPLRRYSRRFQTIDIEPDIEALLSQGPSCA
- PROTOCOL_DESCRIPTION: Primary qHTS Assay for Inhibitors of Recombinant Selenoprotein Glutathione Peroxidase 1 (GPX1) (AID 1845191); note: nearly all actives have a fitted effect of over 65% in size
- EXPERIMENTAL_CONTEXT: recombinant GPX1, GR-coupled NADPH fluorescence, 15 min; series mostly up to 27.7 µM
Results filed as inconclusive are left out. The source made the active and inactive calls. Calls come from the whole dose curve; as a rule, active = well fitted inhibition curve with a large enough effect; inconclusive = small, poorly fitted or top-dose-only effect; inactive = flat fitted curve, though single readings scatter.
MEASURED_METRIC: outcome

COMPOUND	ASSAY_TARGET	MEASURED_METRIC	RECORDED_RESULT
CC(CCO)CCC1C2(C)CCCC(C)(C)C2CC[C@@]1(C)O (some centres undefined)	Glutathione peroxidase 1 (Homo sapiens) (UniProt P07203)	outcome	inactive
O=C(Nc1cc(-c2ccccc2)nn1-c1ccccc1F)c1ccc([N+](=O)[O-])cc1	Glutathione peroxidase 1 (Homo sapiens) (UniProt P07203)	outcome	inactive
CC(=O)NC(C(=O)OC1CCC(C)(C)C2CC=C3C(=O)OCC3C12C)C(C)C (centres undefined)	Glutathione peroxidase 1 (Homo sapiens) (UniProt P07203)	outcome	inactive
Cc1c(Cc2ccc3ccccc3n2)c2cc(F)ccc2n1CC(=O)O	Glutathione peroxidase 1 (Homo sapiens) (UniProt P07203)	outcome	inactive
COc1cc(O)c2c(c1Cl)CC(C)OC2=O (centres undefined)	Glutathione peroxidase 1 (Homo sapiens) (UniProt P07203)	outcome	inactive
C=C[C@]1(C)C[C@@H](OC(=O)CSC2C[C@H]3CC[C@@H](C2)N3C)[C@]2(C)[C@H](C)CC[C@]3(CCC(=O)[C@H]32)[C@@H](C)[C@@H]1O (some centres undefined)	Glutathione peroxidase 1 (Homo sapiens) (UniProt P07203)	outcome	inactive
Cn1cc(-c2c[nH]c3ncnc(N4CCOCC4)c23)cn1	Glutathione peroxidase 1 (Homo sapiens) (UniProt P07203)	outcome	inactive
COc1ccc(CC(=O)NCc2ccccc2-c2ccccc2C(=O)NCCc2cccnc2)cc1	Glutathione peroxidase 1 (Homo sapiens) (UniProt P07203)	outcome	inactive
Cc1cc(O[C@@H]2O[C@H](COC(=O)CC(=O)O)[C@@H](O)[C@H](O)[C@H]2O)c(C(C)C)cc1O	Glutathione peroxidase 1 (Homo sapiens) (UniProt P07203)	outcome	inactive

* * *

- System: PA-1
- PROTOCOL_DESCRIPTION: Primary qHTS to identify gynecologic anti-cancer compounds using libraries of approved drugs and bioactive compounds (AID 1345084); note: % is set by controls: 0 for no effect and ±100 for the full control effect; nearly all actives have a fitted effect of over 55% in size
- EXPERIMENTAL_CONTEXT: Gynecologic cancer cell panel viability, ATPlite luminescence, 48 h; series mostly up to 57.5 µM
Inconclusive results are not listed. The source made the active and inactive calls. Calls come from the whole dose curve; as a rule, active = well fitted cell-killing curve with a large enough effect; inconclusive = small, poorly fitted or top-dose-only effect, or effect the other way; inactive = flat fitted curve, though single readings scatter.
MEASURED_METRIC: activity change, negative = cytotoxicity

COMPOUND	RECORDED_RESULT
CC(=O)/C=C/C1(O)C(C)(C)CC(O)CC1(C)O (stereo not drawn)	inactive
COc1cc(C)c(C(=O)NC2C(C)OC(OC3CCC(C)C4C3C=C(C)C3/C(C)=C\CC/C(C)=C/C5(C)C=C(C(=O)O)C(C)CC56OC(=O)/C(=C(\O)C34C)C6=O)C(O)C2(C)O)c(O)c1 (stereo not drawn)	-2.04% [at 11.6 µM] (inactive)
Cc1cc(-n2c(=O)[nH]c(=O)n(C)c2=O)ccc1Oc1ccc(SC(F)(F)F)cc1	inactive
Cn1c2ccc(NC(=O)c3ccccc3)cc2c(=O)n2nc(C(=O)O)cc12	inactive
CC(=O)OCC1OC(O[C@H]2CC[C@@]3(C)C(CC[C@]4(C)C3CC=C3[C@@H]5CC(C)(C)CC[C@]5(C(=O)O)CC[C@]34C)[C@]2(C)CO)C(O)C(O)C1OC1OC(C)C(O)C(OC2OCC(O)C(O)C2O)C1O (stereo partly drawn)	-3.48% [at 11.6 µM] (inactive)
COc1cc(/C=C/C(=O)OCC2OC(OC3(CO)OC(CO)C(O)C3O)C(O)C(O)C2O)ccc1O (stereo not drawn)	inactive
CC(C)=CCC/C(C)=C/CO[C@@H]1O[C@H](CO[C@@H]2OC[C@](O)(CO)[C@H]2O)[C@@H](O)[C@H](O)[C@H]1O	inactive
CS(=O)(=O)c1ccccc1N1CCN(c2nc3c(c(=O)[nH]2)CSCC3)CC1	inactive
CC1=C[C@H](O)[C@H]2C(C)(C)CCC[C@]2(C)[C@@]1(O)CO	inactive
CC(=O)OC1CC2C(C)(C)C(=O)C=CC2(C)C2CC(=O)C3=C(CCC3C3=CC(O)OC3=O)C12C (stereo not drawn)	inactive
C/C(CO)=C1/CCC23COC(C2)C(O)(C(=O)O)CCC13 (stereo not drawn)	inactive
COc1cc(OC)cc(-c2ccc3c(-c4ccc(F)cc4)[nH]nc3n2)c1	inactive
O=C(NCCN1CCCC1)c1cc(-c2ccc(CN3CCOCC3)cc2)nc2ccc(F)cc12	inactive
C=C(C)C1CCC2(C(=O)OC3OC(COC4OC(CO)C(O)C(O)C4O)C(OC4OC(C)C(O)C(O)C4O)C(O)C3O)CCC3(C(=O)O)C(CCC4C5(C)CCC(=O)C(C)(C)C5CCC43C)C12 (stereo not drawn)	8.9% [at 11.6 µM] (inactive)
Cc1nc2cc(-c3cc(F)cc(C#N)c3)ccc2s1	inactive
CC(=O)N[C@H](Cc1c[nH]c2ccccc12)C(=O)OCc1cc(C(F)(F)F)cc(C(F)(F)F)c1	inactive
O=C(O)c1cc(O[C@@H]2O[C@H](CO)[C@@H](O)[C@H](O)[C@H]2O)ccc1O	inactive
O=C(NCC(=O)N1CCCC1)Nc1ccc2ccccc2c1	inactive
